The reader will find reported melting point values listed item by item below.
RECORDED METRIC: melting point

sample_smiles=O=C1NC(=S)SC1=Cc1ccc(OCc2cccc(C(F)(F)F)c2)c(Cl)c1 endpoint_result="224 to 226 °C"
sample_smiles=COc1cc(C=C2SC(=S)NC2=O)ccc1OCc1ccc(C)cc1 endpoint_result="205 to 207 °C"
sample_smiles=COc1cc(C=C2SC(=S)NC2=O)ccc1OCc1ccc(C(F)(F)F)cc1 endpoint_result="209 to 211 °C"
sample_smiles=O=C1NC(=S)SC1=Cc1ccc(OCc2ccc(C(F)(F)F)cc2)c(Br)c1 endpoint_result="210 to 212 °C"
sample_smiles=COc1cc(C=C2SC(=S)NC2=O)ccc1OCc1cccc(C(F)(F)F)c1 endpoint_result="199 to 201 °C"
sample_smiles=Cc1ccc(COc2ccc(C=C3SC(=S)NC3=O)cc2Cl)cc1 endpoint_result="225 to 227 °C"
sample_smiles=Cc1ccc(COc2ccc(C=C3SC(=S)NC3=O)cc2Br)cc1 endpoint_result="217 to 219 °C"
sample_smiles=O=C1NC(=S)SC1=Cc1ccc(OCc2cccc(C(F)(F)F)c2)c(Br)c1 endpoint_result="235 to 237 °C"

====

The reader will find reported inhibition at 10 µg/mL values listed item by item below.
System: C. albicans hyphae / biofilm
ASSAY NOTES: Inhibition of Candida biofilm (hyphae) formation, microtiter plate MTT assay
Type: cell-based, C. albicans SC5314
CONDITION LABEL: 10 μg/mL, hyphae growth conditions
RECORDED METRIC: inhibition at 10 µg/mL (%)

sample_smiles=COc1cc(C=C2SC(=S)NC2=O)ccc1OCc1ccc(C(F)(F)F)cc1 unit_spec=% endpoint_result=50
sample_smiles=COc1cc(C=C2SC(=S)NC2=O)ccc1OCc1cccc(C(F)(F)F)c1 unit_spec=% endpoint_result=90
sample_smiles=O=C1NC(=S)SC1=Cc1ccc(OCc2cccc(C(F)(F)F)c2)c(Br)c1 unit_spec=% endpoint_result=50
sample_smiles=O=C1NC(=S)SC1=Cc1ccc(OCc2cccc(C(F)(F)F)c2)c(Cl)c1 unit_spec=% endpoint_result=50

====

System: C. albicans yeast
ASSAY NOTES: Antimicrobial activity / MIC against C. albicans growing in yeast-forming conditions
Format: cell-based, C. albicans SC5314
CONDITION LABEL: Candida albicans; −log IC50 against C. albicans; training set of 3D QSAR; read-out: pIC50 Experimental (converted)
RECORDED METRIC: IC50 (µM)

compound="O=C1NC(=S)SC1=Cc1ccc(OCc2ccc(C(F)(F)F)cc2)c(Br)c1 [SR5]" recorded_metric=IC50 endpoint_result=470
compound="Cc1ccc(COc2ccc(C=C3SC(=S)NC3=O)cc2Br)cc1 [SR2]" recorded_metric=IC50 endpoint_result=475
compound="COc1cc(C=C2SC(=S)NC2=O)ccc1OCc1cccc(C(F)(F)F)c1 [SR7]" recorded_metric=IC50 endpoint_result=264
compound="Cc1ccc(COc2ccc(C=C3SC(=S)NC3=O)cc2Cl)cc1 [SR3]" recorded_metric=IC50 endpoint_result=1060
compound="COc1cc(C=C2SC(=S)NC2=O)ccc1OCc1ccc(C(F)(F)F)cc1 [SR4]" recorded_metric=IC50 endpoint_result=456
compound="O=C1NC(=S)SC1=Cc1ccc(OCc2cccc(C(F)(F)F)c2)c(Cl)c1 [SR8]" recorded_metric=IC50 endpoint_result=294
compound="O=C1NC(=S)SC1=Cc1ccc(OCc2cccc(C(F)(F)F)c2)c(Br)c1 [SR6]" recorded_metric=IC50 endpoint_result=264
compound="COc1cc(C=C2SC(=S)NC2=O)ccc1OCc1ccc(C)cc1 [SR1]" recorded_metric=IC50 endpoint_result=1080
